# Target of assay: human CCR5 chemokine receptor (Homo sapiens)
# Construct: expressed in transfected cells; host or cells: NIH 3T3 cells (murine), membranes
# Sequence (P51681 whole entry): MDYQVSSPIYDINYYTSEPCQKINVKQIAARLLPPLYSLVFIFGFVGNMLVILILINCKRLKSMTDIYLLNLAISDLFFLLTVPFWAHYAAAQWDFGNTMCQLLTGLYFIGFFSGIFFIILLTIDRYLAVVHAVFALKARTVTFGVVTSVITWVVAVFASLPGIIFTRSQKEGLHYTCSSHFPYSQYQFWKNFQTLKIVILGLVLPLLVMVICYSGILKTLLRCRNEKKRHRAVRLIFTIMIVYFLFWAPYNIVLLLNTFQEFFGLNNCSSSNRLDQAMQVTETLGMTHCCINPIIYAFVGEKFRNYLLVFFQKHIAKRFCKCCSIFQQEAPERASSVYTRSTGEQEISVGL
# Method description: CCR5 membrane binding assay (inhibition of 125I-RANTES binding)
# Stated conditions: membranes from NIH 3T3 cells expressing the human CCR5 chemokine receptor, one hour incubation
Result type: Ki (nM)

(a) Cc1ccnc(C)c1C(=O)N1CCC(C)(N2CCC(C(Oc3ccccn3)c3ccc(S(C)(=O)=O)cc3)CC2)CC1 (stereo not shown)
(b) CCC(=O)OC(c1ccc(Br)cc1)C1CCN(C2(C)CCN(C(=O)c3c(C)cccc3C)CC2)CC1 (stereo not shown)
(c) Cc1ncnc(C)c1C(=O)N1CCC(C)(N2CCC(C(Oc3ccccn3)c3ccc(Br)cc3)CC2)CC1 (single isomer, unassigned)
Query string: Order these by Ki, descending, and give the full ranking. Labels, ranked as asked.
Result string: b, a, c
